// data source = ChEMBL document CHEMBL1158689

test: Inhibition of phosphodiesterase-1
Catalogue of pIC50 values
// pIC50 is dimensionless: -log10 of concentration (M)

input: Return pIC50 for the following molecule: N[C@@H](CS)C(=O)O [CYSTEINE]
output: 3.13

input: Return pIC50 for the following molecule: COc1cc(/C=C/c2ccc(O)cc2)cc(O[C@@H]2O[C@H](CO[C@@H]3O[C@@H](C)[C@H](O)[C@@H](O)[C@H]3O)[C@@H](O)[C@H](O)[C@H]2O)c1
output: 3.23

input: Return pIC50 for the following molecule: COc1cc(/C=C/c2ccc(O)cc2)cc(O[C@@H]2O[C@H](CO[C@@H]3O[C@@H](C)[C@H](O)[C@@H](O)[C@H]3O)[C@@H](O)[C@H](O)[C@H]2O[C@@H]2O[C@@H](C)[C@H](O)[C@@H](O)[C@H]2O)c1
output: 3.00

As a next step, examine the molecule that follows.
input: Return pIC50 for the following molecule: O=C(O)CN(CCN(CC(=O)O)CC(=O)O)CC(=O)O [EDETIC ACID]
output: 3.56
